Tested on: PSA mRNA expression in LNCaP cells
Test: PSA mRNA expression in LNCaP cells, real time RT-PCR
Assay type: cell-based, human
Conditions: Homo sapiens; LNCaP cells, dose-dependent study (FIG. 4); read-out: IC50 of PSA mRNA inhibition
quantityName: pIC50
Answers are plain numbers, as −log10 of the molar value.

Which pIC50 is reported with PSA mRNA expression in LNCaP cells for this entry: CC(O)(CS(=O)(=O)c1ccc(F)cc1)C(=O)Nc1ccc(C#N)c(C(F)(F)F)c1 (stereo not shown) [bicalutamide, reference compound] ?
6.52
